TARGET OR TEST SYSTEM: UniProtKB P24941
MEASUREMENT DESCRIPTION: Kinase assay (radioactive phosphate incorporation), CDK2-cyclin E
Type: biochemical
PROTOCOL CONDITIONS: read-out: Kinase Inhibition pIC50 CDK2-cycline E (converted)
ATTRIBUTE MEASURED: IC50 (nM)
Give the number; nM is assumed, so skip it.

Q) Requested read-out: IC50. Entry: CCNc1nc(C)c(-c2ccnc(Nc3ccc(N4CC(C)OC(C)C4)cc3)n2)s1 (centres unmarked)
A) 1580

###

TARGET OR TEST SYSTEM: Aurora A kinase (Homo sapiens)
Construct: purchased
Sequence (O14965 1-403): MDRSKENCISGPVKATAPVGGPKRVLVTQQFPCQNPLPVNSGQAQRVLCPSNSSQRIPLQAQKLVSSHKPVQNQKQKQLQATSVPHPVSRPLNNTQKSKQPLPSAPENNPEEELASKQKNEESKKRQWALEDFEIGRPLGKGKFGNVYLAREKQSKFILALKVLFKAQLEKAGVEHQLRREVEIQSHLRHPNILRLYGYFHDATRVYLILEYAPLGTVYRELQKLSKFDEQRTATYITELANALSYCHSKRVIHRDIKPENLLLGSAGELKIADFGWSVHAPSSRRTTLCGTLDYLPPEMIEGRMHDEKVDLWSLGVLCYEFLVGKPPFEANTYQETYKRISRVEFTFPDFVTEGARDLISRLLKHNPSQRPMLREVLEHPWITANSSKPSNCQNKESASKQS
MEASUREMENT DESCRIPTION: Aurora-A (human) kinase assay (Kemptide substrate)
Assay type: biochemical
PROTOCOL CONDITIONS: pIC50 is -log(IC50, M); 15 μM ATP; read-out: Kinase Inhibition pIC50 Aurora A kinase (converted)
Collected IC50 values appear next to each entry.
Give the number; nM is assumed, so skip it.

MOLECULE | IC50, nM
COCCNS(=O)(=O)c1cccc(Nc2nccc(-c3sc(C)nc3C)n2)c1 [Compound 56] | 126
CNc1nc(C)c(-c2ccnc(Nc3ccc(C)c(Br)c3)n2)s1 [Compound 42] | 25.1
COCCNS(=O)(=O)c1ccc(Nc2nccc(-c3sc(C)nc3C)n2)cc1 [Compound 43] | 126
CCNc1nc(C)c(-c2ccnc(Nc3cccc(S(=O)(=O)NCc4ccccc4)c3)n2)s1 [Compound 80] | 398
COCCNS(=O)(=O)c1ccc(Nc2nccc(-c3sc(-c4cccnc4)nc3C)n2)cc1 [Compound 110] | 1000
Cc1nc(C)c(-c2ccnc(Nc3ccc(S(=O)(=O)NCc4ccccc4)cc3)n2)s1 [Compound 74] | 126
CCNc1nc(C)c(-c2ccnc(Nc3ccc4c(c3)OCCO4)n2)s1 [Compound 181] | 200
COc1ccc(Nc2nccc(-c3sc(-c4cccnc4)nc3C)n2)cc1C [Compound 186] | 501
CC(=O)NS(=O)(=O)c1cccc(Nc2nccc(-c3sc(N)nc3C)n2)c1 [Compound 64] | 200
CCNc1nc(C)c(-c2ccnc(Nc3cccc(CNS(=O)(=O)C(F)(F)F)c3)n2)s1 [Compound 10] | 2000

Q) Requested read-out: IC50. Entry: Cc1nc(C)c(-c2ccnc(Nc3cccc(N4CCNCC4)c3)n2)s1 [Compound 8]
A) 39800

Q) Requested read-out: IC50. Entry: CNc1ccc(Nc2nccc(-c3sc(C)nc3C)n2)cc1C(F)(F)F [Compound 149]
A) 398

Q) Requested read-out: IC50. Entry: Cc1nc(N)sc1-c1ccnc(Nc2ccc(N3CCSCC3)cc2)n1 [Compound 201]
A) 63.1

Q) Requested read-out: IC50. Entry: COc1ccc(Nc2nccc(-c3sc(N)nc3C)n2)cc1C [Compound 185]
A) 39.8

Q) Requested read-out: IC50. Entry: Cc1nc(N(C)c2ccc(Cl)cc2)sc1-c1ccnc(Nc2ccc(N3CCOCC3)cc2)n1 [Compound 124]
A) 200
